- Tested on: SR leukemia
- test_name: NCI tumour cell line growth inhibition, 48 h
quantity: TGI

Which value of TGI has been reported for COc1ccc2c(c1)/C(=C\c1c(Cl)[nH]c3ccccc13)C(=O)N2 in the records? 8.25 µM

Which value of TGI has been reported for COc1c(-c2ccccc2)nc2ccc(Oc3ccccc3)nn12 in the records? > 100 µM

Which value of TGI has been reported for CC(=O)O[C@H]1C(=O)[C@@]2(C)[C@H]([C@H](OC(=O)c3ccccc3)[C@]3(O)C[C@H](OC(=O)[C@H](O)[C@@H](NC(=O)c4ccco4)c4ccccc4)C(C)=C1C3(C)C)[C@]1(OC(C)=O)CO[C@@H]1C[C@@H]2O in the records? > 12.5 µM

Which value of TGI has been reported for Cc1nc2c(o1)C(=Nc1ccccc1)c1nc(C)oc1C2=Nc1ccccc1 in the records? > 100 µM

Which value of TGI has been reported for COc1cccc(C2c3cc4c(cc3OC(NNS(=O)(=O)c3ccc(C)cc3)C2C)OCO4)c1OC (stereo unspecified) in the records? 3.29 µM

Which value of TGI has been reported for CCN(CC)CSc1nc2ccccc2[nH]1 in the records? > 100 µM

Which value of TGI has been reported for O=C(CSCC(=O)N/N=C\c1cccc([N+](=O)[O-])c1)N/N=C\c1cccc([N+](=O)[O-])c1 in the records? > 100 µM

Which value of TGI has been reported for O=C(c1ccccc1)N1CCC(CC2(c3cc4ccccc4[nH]3)OCCO2)CC1 in the records? > 100 µM

Which value of TGI has been reported for CC(=O)OCC1OC(n2c3c(c(-c4ccc(Cl)cc4)c(C#N)c2=S)CCCC3)C(OC(C)=O)C(OC(C)=O)C1OC(C)=O (stereo unspecified) in the records? > 100 µM

Which value of TGI has been reported for C=C(C(=O)OC)[C@@H]1C[C@@H](OC(C)=O)C2=C[C@H](C[C@@]3(C)O[C@@H]3C3=CC(C)=C(O3)[C@H]1OC(C)=O)OC2=O in the records? 37.6 µM

Which value of TGI has been reported for CCc1nc2ccc(N=Nc3c(O)ccc4ccccc34)cc2[nH]1 in the records? 24.7 µM

###

- System: HT29 colon
- test_name: NCI tumour cell line growth inhibition, 48 h
Exercise: state measured TGI for each of the compounds provided.
Return type: number; implicit unit µM.

Which value of TGI has been reported for CCN(CC)CCCC(C)Nc1c2cc(OC)cc(C)c2nc2c(C)c(Cl)ccc12 (centres undefined) in the records? 3.03

Which value of TGI has been reported for CC(Nc1ccc(Cl)c(Cl)c1)c1ccncc1 (centres undefined) in the records? 72.4

Which value of TGI has been reported for COC(=O)/C=C1/OC(c2ccccc2)=C(C)C1=O in the records? 4.79

Which value of TGI has been reported for CCc1ccc(COC(=O)C2=C(C)NC(C)=C(C(=O)OCc3ccc(CC)cn3)C2C2=COCCO2)nc1 in the records? 43.7

###

- Tested on: HOP-92 NSCLC
- test_name: NCI tumour cell line growth inhibition, 48 h
quantity: TGI

Which value of TGI has been reported for COc1ccccc1C(O)[C@@H]1C[C@@H]2[C@H]3CC[C@@](C)([C@@H]2O1)C3(C)C (stereo partly drawn) in the records? 30.7 µM

Which value of TGI has been reported for Cc1cn(Cc2ccc(C34CC5CC(CC(C5)C3)C4)c(O)c2)c(=O)[nH]c1=O in the records? 29.5 µM

Which value of TGI has been reported for Cn1c2ccccc2c(=O)c2c(O)cc3c(c21)C=CC(C)(C)O3 in the records? > 25 µM

###

- Test system: HT29 colon
- test_name: NCI tumour cell line growth inhibition, 48 h
Exercise: state measured TGI for each of the compounds provided.

Which value of TGI has been reported for NS(=O)(=O)c1cc(C(=O)O)c(O)c2ccccc12 in the records? > 100 µM

Which value of TGI has been reported for CN(/N=C\c1ccnc2ccccc12)c1ccc([N+](=O)[O-])cc1 in the records? > 100 µM

Which value of TGI has been reported for CN1CCN(Cc2ccc(NC(=O)c3cncc(C#Cc4cnc(N)c5cccnc45)c3)cc2C(F)(F)F)CC1 in the records? > 50 µM

Which value of TGI has been reported for Cc1cc(Nc2cc(N3CCN(C)CC3)nc(/C=C/c3ccccc3)n2)n[nH]1 in the records? > 6.77 µM

Which value of TGI has been reported for CNS(=O)(=O)NNS(=O)(=O)c1ccc(OC)cc1 in the records? > 100 µM
